experiment: Cytotoxicity in mouse NMuMG cells after 72 hrs by colorimetry; format: cell-based
# pIC50 listing for each entry below
pIC50 field: float, defined as -log10 of concentration (mol/L).

* COC(=O)[C@@H]1N2C(=O)[C@H](Cl)[C@H]2S[C@@]1(C)CSC1=NCCS1 | 4.39
* COC(=O)[C@@H]1N2C(=O)[C@H](Cl)[C@H]2S[C@@]1(C)CSc1nc2ccccc2s1 | 4.44
* CCOc1ccc2nc(SC[C@]3(C)S[C@@H]4[C@@H](Cl)C(=O)N4[C@H]3C(=O)OC)sc2c1 | 4.37
* COC(=O)[C@@H]1N2C(=O)C(Br)(Br)[C@H]2S[C@@]1(C)CSc1nc(-c2ccccc2)c(-c2ccccc2)o1 | 4.51

Moving on to another molecule below.
response.value for `COC(=O)[C@@H]1N2C(=O)[C@H](Cl)[C@H]2S[C@@]1(C)CSc1nc(-c2ccccc2)c(-c2ccccc2)o1` (field: pIC50) = 4.49

###

Listing: IC50 of selected compounds
experiment: Antiproliferative activity against mouse B16F0 cells after 72 hrs by colorimetry; format: functional, cell-based; conditions: B16F0, 72 h
Please respond with the number in µM and leave the unit unwritten.

Here's what some known entries look like.
* CCOc1ccc2nc(SC[C@]3(C)S[C@@H]4[C@@H](Cl)C(=O)N4[C@H]3C(=O)OC)sc2c1 | 27
* COC(=O)[C@@H]1N2C(=O)C(Br)(Br)[C@H]2S[C@@]1(C)CSc1nc(-c2ccccc2)c(-c2ccccc2)o1 | 11

We now examine a further compound.
Data point: `COC(=O)[C@@H]1N2C(=O)[C@H](Cl)[C@H]2S[C@@]1(C)CSc1nc2ccccc2s1` ; IC50 = 18

The measured values listed here are drawn from ChEMBL document CHEMBL3632588.
